# System: bovine s.c. adipose tissue
# testDescription: Lipolysis: NEFA release, s.c. adipose tissue explants
# Type: cell-based, bovine (Angus cross steers)
# measurementConditions: Bos taurus, sc, 0.5 h; s.c. adipose tissue, 30 min at 37 °C, n = 5
Where a name gives a salt, the structure may show the parent alone.

compound: CC(C)NCC(O)c1ccc(O)c(O)c1 (stereo not shown) [ISO, isoproterenol hydrochloride]
EC50, nM: 180

---

# studySystem: bovine β 1-AR (Bos taurus, UniProt Q9TT96)
# Sequence (Q9TT96 whole entry): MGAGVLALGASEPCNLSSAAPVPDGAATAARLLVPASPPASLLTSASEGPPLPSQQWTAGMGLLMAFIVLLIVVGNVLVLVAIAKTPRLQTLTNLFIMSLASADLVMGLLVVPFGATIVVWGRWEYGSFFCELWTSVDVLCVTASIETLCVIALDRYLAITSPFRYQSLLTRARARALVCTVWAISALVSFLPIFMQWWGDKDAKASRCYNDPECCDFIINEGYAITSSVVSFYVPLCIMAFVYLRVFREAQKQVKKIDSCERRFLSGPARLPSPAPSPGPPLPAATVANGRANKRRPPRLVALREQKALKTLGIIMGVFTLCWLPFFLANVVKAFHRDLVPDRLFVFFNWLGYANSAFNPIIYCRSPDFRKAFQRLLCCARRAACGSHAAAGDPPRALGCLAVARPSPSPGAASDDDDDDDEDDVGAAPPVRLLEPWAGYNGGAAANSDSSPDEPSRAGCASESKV
# testDescription: cAMP induction in CHO cells transfected with bovine β 1-AR construct (LANCE cAMP kit)
# measurementConditions: 45 min, 5 mM theophylline, ND = cAMP not detected or insufficient for EC50
measuredQuantity: EC50 (µM)

molecule: CC(CCc1ccc(O)cc1)NCC(O)c1ccc(O)cc1.Cl (racemic) [RAC, ractopamine hydrochloride]
measuredQuantity: EC50
quantitativeReadout: 0.002

molecule: CC(C)(Cc1ccc(Oc2ncccc2C#N)cc1)NC[C@H](O)COc1ccccc1-c1cccs1.CC(C)(Cc1ccc(Oc2ncccc2C#N)cc1)NC[C@H](O)COc1ccccc1-c1cccs1.O=C(O)/C=C/C(=O)O [LUB, lubabegron fumarate]
measuredQuantity: EC50
quantitativeReadout: 0.19
